- system: Histone deacetylase 1 (Homo sapiens)
- Sequence (Q13547 whole entry): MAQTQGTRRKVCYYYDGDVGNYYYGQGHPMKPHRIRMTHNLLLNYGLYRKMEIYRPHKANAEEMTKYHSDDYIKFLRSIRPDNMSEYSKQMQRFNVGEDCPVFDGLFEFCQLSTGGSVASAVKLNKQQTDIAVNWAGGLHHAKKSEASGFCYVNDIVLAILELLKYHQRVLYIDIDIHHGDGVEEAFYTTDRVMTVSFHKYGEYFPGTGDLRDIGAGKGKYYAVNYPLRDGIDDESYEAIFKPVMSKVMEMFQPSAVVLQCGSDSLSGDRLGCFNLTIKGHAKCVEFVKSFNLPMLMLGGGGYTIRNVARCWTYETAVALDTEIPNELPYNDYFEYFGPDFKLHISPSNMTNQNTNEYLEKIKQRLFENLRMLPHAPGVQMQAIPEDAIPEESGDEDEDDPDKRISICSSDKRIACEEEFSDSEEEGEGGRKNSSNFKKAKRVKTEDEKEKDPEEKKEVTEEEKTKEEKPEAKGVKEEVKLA
- measurement description: Inhibition of recombinant HDAC1 (unknown origin) using Boc-Lys(acetyl)-AMC as substrate preincubated for 1 hr followed by substrate addition and measured after 2 hrs by fluorescence based micro plate reader analysis
Quick reference: pIC50 of the listed items.
On this scale, pIC50 is minus log10 of a concentration expressed in M (mol/L).

In [3]: df
Out[3]:
                                   compound  assay_result
0        CCCNNC(=O)c1ccc(NC(=O)c2ccccc2)cc1          7.03
1  CCCCCN(CCC)NC(=O)/C=C/c1ccc(CNCCc2c(C)[nH]c3ccccc23)cc1          6.42

We now examine a further compound.
Q: Please give the measured pIC50 for this compound: "CCCNNC(=O)c1cccc(CNCCc2c(C)[nH]c3ccccc23)c1"
Result: 5.78
